Test system: CCRF-CEM (CEM) cells
PROTOCOL_DETAILS: MTT-based cytotoxicity assay, CEM
Assay type: cell-based, human
STUDY_CONDITIONS: sensitive parental line
Exercise: state measured IC50 for each of the molecules provided.
Response body: numeric value in nM, unit text excluded.

Q: For the molecule C=C[C@H]1O[C@H]2C[C@H]3OC[C@@]3(OC(C)=O)[C@H]3[C@H](OC(=O)c4ccccc4)[C@]4(C(C)(C)O)C[C@H](OC(=O)[C@H](O)[C@H](CC(C)C)NC(=O)OC(C)(C)C)C(C)=C4[C@@H](OC(C)=O)[C@H](O1)[C@]23C [10-βAT (15b.2)] , what IC50 is on record?
Result: 112

Q: For the molecule C=CC1OC2CC3OCC3(OC(C)=O)C3C(OC(=O)c4ccccc4)C4(O)CC(OC(=O)C(O)C(CC(C)C)NC(=O)OC(C)(C)C)C(C)=C(C(OC(C)=O)C(O1)C23C)C4(C)C (mixture of isomers) [10-αTX (14a.2)] , what IC50 is on record?
Result: 14

Q: For the molecule C=CC1OC2CC3OCC3(OC(C)=O)C3C(OC(=O)c4ccccc4)C4(C(C)(C)O)CC(OC(=O)C(O)C(CC(C)C)NC(=O)OC(C)(C)C)C(C)=C4C(OC(C)=O)C(O1)C23C (stereo not drawn) [10-αAT (15a.2)] , what IC50 is on record?
Result: 5
